Source of measurements: PubChem BioAssay (NCI)

test system: OVCAR-5 ovarian; experiment: NCI tumour cell line growth inhibition, 48 h
value type: TGI

Some compounds with recorded TGI:
>  <compound>
COC(=O)[C@@H](OC(C)=O)[C@@H](OC(C)=O)c1nnc2ccc(Cl)nn12

>  <value type>
TGI

>  <meas value>
> 100 µM

$$$$
>  <compound>
CN1C(=O)CN2C(Cl)(Cl)C2(c2ccccc2)c2cc(Cl)ccc21 (centres undefined)

>  <value type>
TGI

>  <meas value>
> 100 µM

$$$$
>  <compound>
Cc1cc(C(O)(c2ccc(Nc3ccccc3)cc2)c2ccc(Nc3ccc(S(=O)(=O)O)cc3)cc2)ccc1N (centres undefined)

>  <value type>
TGI

>  <meas value>
3 µM

$$$$
>  <compound>
Oc1ccc(Cc2ccc(O)c(C3CC(c4ccc(Cl)cc4)=NN3)c2)cc1C1CC(c2ccc(Cl)cc2)=NN1 (centres undefined)

>  <value type>
TGI

>  <meas value>
> 35.7 µM

$$$$
>  <compound>
C/C(=N\O)c1cccc(Nc2cc(-c3ccccc3)nc3c(O)cccc23)c1

>  <value type>
TGI

>  <meas value>
32.2 µM

$$$$

Form field: TGI recorded for "CCC(C)(C)[C@H](NC(=O)[C@H]1CCCCN1C)C(=O)N(C)[C@H](C[C@@H](OC(C)=O)c1nc(C(=O)N[C@@H](Cc2ccccc2)C[C@H](C)C(=O)O)cs1)C(C)C" with OVCAR-5 ovarian (enter value) > 16.7 µM

Form field - read-out: TGI; system: OVCAR-5 ovarian; submitted item: CCOC(=O)C1=CNC(C(=O)OCC)C1c1cccn1-c1ccccc1 (centres undefined) > 100 µM

Query TGI on OVCAR-5 ovarian for "Cc1cnc2c(c1)C(=O)N(c1ccc([N+](=O)[O-])cc1)S2(=O)=O" > 100 µM

Item "CC(=O)O[C@H]1CC[C@@]2(C)C(=CC[C@@H]3[C@@H]2CC[C@](C)(c2nnc(C)o2)[C@H]3CC#N)C1" with OVCAR-5 ovarian - TGI? > 100 µM

For OVCAR-5 ovarian, provide TGI of "N#Cc1ccc(C(C2C(=O)NC(=O)NC2=O)C2C(=O)NC(=O)NC2=O)cc1" please. > 100 µM

Record CCC(c1ccc(OC)cc1)C1NC(=S)NC1=O (centres undefined) : what is its TGI with OVCAR-5 ovarian? > 50 µM

Hello, I am looking for reported TGI with OVCAR-5 ovarian for "CCCn1c(=O)c2nn3c(=O)n(CCC)c(=O)c3nn2c1=O" . Could you help? > 100 µM

Could you share what TGI was measured for COC1=CC(=O)c2c(cc3c(c2O)-c2c(OC)cc4cc5c(c(O)c4c2OC(=O)CC(C)(O)C3)C(=O)CC(C)(O)C5)C1=O (centres undefined) , tested on OVCAR-5 ovarian? 4.27 µM

# returns recorded TGI (system: OVCAR-5 ovarian) for Cc1ccc(SCC(CF)OC(C)n2cnc3c(Cl)nc(N)nc32)cc1 (centres undefined) > 100 µM

Could you share what TGI was measured for "O=c1oc2ccc3ccccc3c2cc1-c1cn2c(n1)sc1ccccc12" , tested on OVCAR-5 ovarian? > 100 µM

# get_value(readout= TGI, system= OVCAR-5 ovarian) for Fc1cccc(C2SCc3nc4cc5ccccc5cc4n32)c1 (centres undefined) > 100 µM

Item CCCCCCCCCCCCCCCC(=O)Nc1ccn(C2CCC(COP(=O)(O)OCC3OC(n4cc(F)c(=O)[nH]c4=O)CC3OC(C)=O)O2)c(=O)n1 (centres undefined) with OVCAR-5 ovarian - TGI? > 74.5 µM

Request body: readout TGI, system OVCAR-5 ovarian, query "CC(=O)Oc1ccc(Nn2c3ccccc3c3ccccc32)c(C)c1" . Return the value. > 100 µM

// fetch OVCAR-5 ovarian TGI for Nc1nc(Br)nc2ncn(C3CC(O)C(CO)O3)c12 (centres undefined) > 100 µM
